- method: Stability in Simulated Intestinal Fluid (SIF)
- Type: in vitro ADME
- Design: key: % parent compound remaining relative to 0-minute sample
- test-conditions: simulated intestinal fluid, remaining at 1 h
measured-property: SIF
Provide a numeric answer, followed by its unit.

For this compound ( CC(C)OCCn1c(SCOC(=O)CCCOC(=O)[C@H](N)Cc2ccccc2)nc(=O)c2c1ccn2COC(=O)CCCOC(=O)[C@H](N)Cc1ccccc1.O=C(O)C(F)(F)F.O=C(O)C(F)(F)F [Example 364] ), measured SIF is 1% remaining

For this compound ( CC(C)C[C@H](N)C(=O)OCCC(=O)OCn1ccc2c1c(=O)[nH]c(=S)n2CCOC(C)C.O=C(O)C(F)(F)F [Example 367] ), measured SIF is 0% remaining

For this compound ( CSCC[C@@H](N)C(=O)OCCC(=O)OCn1ccc2c1c(=O)[nH]c(=S)n2CCOC(C)C.O=C(O)C(F)(F)F [Example 366] ), measured SIF is 2% remaining

For this compound ( CC(C)OCCn1c(SCOC(=O)N(C)CCOCCN)nc(=O)c2[nH]ccc21.O=C(O)C(F)(F)F [Example 380] ), measured SIF is 99% remaining

For this compound ( CC(C)C[C@@H](N)C(=O)OCCCCC(=O)OCn1ccc2c1c(=O)[nH]c(=S)n2CCOC(C)C.O=C(O)C(F)(F)F [Example 350] ), measured SIF is 52% remaining
